This collection of values is drawn from patent US20140296484A1.

Assay: Fluorescence polarization (FP) competitive binding assay
Settings: Table 20; read-out: CDK2/Cyclin A IC050
Assign IC50 to each entry below.

[in] Quick one: IC50 for Cc1nc(C(=O)NC(CCCCNC(=N)N)C(=O)NC(CC(C)C)c2ccccc2OCC(C)C)nn1-c1cc(Cl)cc(Cl)c1 (stereo not drawn) ?
[out] > 180 µM

[in] Same question, COc1ccccc1C(CC(C)C)NC(=O)C(CCCCNC(=N)N)NC(=O)c1nc(C)n(-c2cc(Cl)cc(Cl)c2)n1 (stereo not drawn) this time
[out] > 180 µM

[in] // same read-out, input: CCOc1ccccc1C(CC(C)C)NC(=O)C(CCCCNC(=N)N)NC(=O)c1nc(C)n(-c2cc(Cl)cc(Cl)c2)n1 (stereo not drawn)
[out] > 180 µM
